Listed here: items and their measured Activity.
Organism: Rattus norvegicus
assay_details: Activation of ATP-sensitive potassium channel opening in albino rat pancreatic islets assessed as inhibition of glucose-induced insulin release measured as residual insulin release at 10 uM after 90 mins by radioimmunoassay
assay_metric: Activity (%)

# compound, assay_metric, result_value
records = [
    ("CC(C)NC1=NS(=O)(=O)c2cc(S(C)(=O)=O)ccc2S1", "Activity", 76.3),
    ("CC(C)NC1=NS(=O)(=O)c2c[n+]([O-])ccc2S1", "Activity", 76.7),
    ("CC(NC1=NS(=O)(=O)c2cc(C(F)(F)F)ccc2S1)c1ccccc1 (racemic)", "Activity", 97),
    ("CC(SC1=NS(=O)(=O)c2cccc(Cl)c2N1)c1ccccc1 (stereo not given)", "Activity", 79.2),
    ("O=[N+]([O-])c1ccc2c(c1)S(=O)(=O)N=C(NC1CCCC1)S2", "Activity", 100),
    ("O=S1(=O)N=C(NC2CCCC2)Sc2ccc(C(F)(F)F)cc21", "Activity", 89.5),
    ("CC(SC1=NS(=O)(=O)c2cc(I)ccc2N1)c1ccccc1 (stereo not given)", "Activity", 81.4),
    ("CC(C)CNC1=NS(=O)(=O)c2cc([N+](=O)[O-])ccc2S1", "Activity", 110),
    ("CS(=O)(=O)c1ccc2c(c1)S(=O)(=O)N=C(Nc1ccccc1)S2", "Activity", 92.4),
    ("CC(NC1=NS(=O)(=O)c2cc(C(F)(F)F)ccc2S1)c1ccccc1 (stereo in doubt; 6t)", "Activity", 97),
]
